B1: HDV Ribozyme (parent)
chain: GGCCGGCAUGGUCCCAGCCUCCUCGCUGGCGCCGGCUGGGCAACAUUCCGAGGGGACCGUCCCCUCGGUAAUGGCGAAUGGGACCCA

variants of: B1; assay: self-cleavage, relative activity (ratio to wild type); higher = more cleavage; co-transcriptional
Quick reference: self-cleavage of the listed items.

{"VARIANT_DESCRIPTOR": "G1U A78U", "self-cleavage": 0.415}
{"VARIANT_DESCRIPTOR": "G34C C66G", "self-cleavage": 0.169}
{"VARIANT_DESCRIPTOR": "G29A G76A", "self-cleavage": 0.328}
{"VARIANT_DESCRIPTOR": "C49G G54C", "self-cleavage": 0.762}
{"VARIANT_DESCRIPTOR": "C14G G35C", "self-cleavage": 0}
{"VARIANT_DESCRIPTOR": "G29C G55A", "self-cleavage": 0.166}
{"VARIANT_DESCRIPTOR": "U12A A42C", "self-cleavage": 0.147}
{"VARIANT_DESCRIPTOR": "G5U C86G", "self-cleavage": 0.26}
{"VARIANT_DESCRIPTOR": "G29U C44U", "self-cleavage": 0.104}
{"VARIANT_DESCRIPTOR": "C15A U23G", "self-cleavage": 0.185}
{"VARIANT_DESCRIPTOR": "G25U U72G", "self-cleavage": 0.181}

Where do these numbers come from? They come from the RNAGym collection of RNA variant scans (doi:10.7554/elife.80360).
